Target: PDE4B (Homo sapiens)
Sequence (Q07343 whole entry): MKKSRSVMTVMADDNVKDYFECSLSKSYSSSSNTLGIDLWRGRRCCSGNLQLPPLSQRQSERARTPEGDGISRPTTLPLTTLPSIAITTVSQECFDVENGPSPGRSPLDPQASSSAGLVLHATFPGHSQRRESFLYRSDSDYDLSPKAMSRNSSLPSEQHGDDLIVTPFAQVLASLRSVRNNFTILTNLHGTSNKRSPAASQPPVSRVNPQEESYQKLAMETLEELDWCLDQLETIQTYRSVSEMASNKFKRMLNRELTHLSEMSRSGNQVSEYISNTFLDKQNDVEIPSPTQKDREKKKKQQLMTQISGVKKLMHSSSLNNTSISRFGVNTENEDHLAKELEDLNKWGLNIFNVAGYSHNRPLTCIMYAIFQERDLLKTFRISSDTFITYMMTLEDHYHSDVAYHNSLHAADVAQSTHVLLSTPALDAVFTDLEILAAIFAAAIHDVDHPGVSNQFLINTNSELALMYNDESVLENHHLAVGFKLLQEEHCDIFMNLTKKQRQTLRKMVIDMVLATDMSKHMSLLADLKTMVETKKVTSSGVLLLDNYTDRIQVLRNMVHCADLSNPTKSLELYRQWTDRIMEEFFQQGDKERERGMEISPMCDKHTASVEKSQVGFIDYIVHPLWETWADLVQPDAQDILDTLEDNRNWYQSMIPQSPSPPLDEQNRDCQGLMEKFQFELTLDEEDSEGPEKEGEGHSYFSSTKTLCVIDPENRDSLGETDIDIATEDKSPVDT
Experiment: In-vitro assay for PDE4 enzymes, real-time enzyme-coupled spectrophotometric assay, PDE4B Activity (Table 10)
Assay type: biochemical
Conditions: human PDE4B (hPDE4B), enzyme-coupled spectrophotometric assay; read-out: PDE4B Activity, hPDE4B
pIC50: −log10 of the molar value. Where a name gives a salt, the structure may show the parent alone.
ENDPOINT NAME: pIC50

Incoming: Looking for the measured pIC50 of COc1ccc(Cc2ccc(C=O)cc2)c(O)c1-c1cccc([N+](=O)[O-])c1 [P-180] , can you help?
Outgoing: > 5.30

Incoming: Similarly, COc1cccc(-c2cc(CN3CCCC3=O)ccc2OC)c1 [P-184] ?
Outgoing: 4.70 to 5.30

Incoming: Similarly, CCOc1ccc(Cc2ccc(N)cc2)c(F)c1-c1cccc(C(C)=O)c1 [P-334, hydrochloride] ?
Outgoing: > 5.30

Incoming: Similarly, CNC(=O)Cc1ccc(OC)c(-c2cccc([N+](=O)[O-])c2)c1 [Cmpd P-027] ?
Outgoing: 4.70 to 5.30

Incoming: Similarly, COc1ccc(Cn2cnc3ccccc32)cc1-c1ccc2nonc2c1 [P-014] ?
Outgoing: 4.70 to 5.30

Incoming: Similarly, COc1ccc(CN2CCCC2=O)cc1-c1ccc(F)c(F)c1 [P-223] ?
Outgoing: 4.70 to 5.30

Incoming: Similarly, COc1ccc(Cc2ccc(OC)c(-c3cccc([N+](=O)[O-])c3)c2O)cn1 [P-125] ?
Outgoing: > 5.30

Incoming: Similarly, COc1ccc(Cc2cnc(O[C@@H]3CCN(C)C3)nc2)c(F)c1-c1cccc(Cl)c1 [P-406] ?
Outgoing: > 5.30

Incoming: Similarly, COc1ccc(Cc2ccc(CNC(=O)C(N)=O)nc2)c(F)c1-c1cccc(Cl)c1 [P-521] ?
Outgoing: > 5.30
